log10(MIC) listing for selected molecules.
Test system: Staphylococcus aureus (methicillin-resistant and sensitive clinical isolates; ATCC29213)
Assay: MIC by micro broth dilution (CLSI), Staphylococcus aureus
Format: cell-based
Settings: Standard strain ATCC29213, read-out: MIC
ATTRIBUTE_MEASURED: log10(MIC) (log10 of the value in µg/mL)

| MOLECULE | TESTED_TARGET | ATTRIBUTE_MEASURED | OBSERVED_MEASUREMENT |
| --- | --- | --- | --- |
| [2H]c1cc2cccnc2c(O)c1[N+](=O)[O-] [Example 117, 7-nitroquinolin-6-d-8-ol] | Staphylococcus aureus (methicillin-resistant and sensitive clinical isolates; ATCC29213) | log10(MIC) | 0.60 |
| O=[N+]([O-])c1ccc2c(N3CCOCC3)ccnc2c1O [Example 14, 4-Morpholino-7-nitroquinolin-8-ol] | Staphylococcus aureus (methicillin-resistant and sensitive clinical isolates; ATCC29213) | log10(MIC) | 2.11 |
| O=[N+]([O-])c1ccc2c(Cl)c(-c3ccccc3)cnc2c1O [Example 82, 4-chloro-7-nitro-3-phenylquinolin-8-ol] | Staphylococcus aureus (methicillin-resistant and sensitive clinical isolates; ATCC29213) | log10(MIC) | 0.00 |
| COC1CCN(c2ccnc3c(O)c([N+](=O)[O-])cc(Cl)c23)CC1 [Example 38] | Staphylococcus aureus (methicillin-resistant and sensitive clinical isolates; ATCC29213) | log10(MIC) | 0.90 |
| CC1(C)CCN(c2ccnc3c(O)c([N+](=O)[O-])cc(Cl)c23)CC1 [Example 41] | Staphylococcus aureus (methicillin-resistant and sensitive clinical isolates; ATCC29213) | log10(MIC) | 1.51 |
| CC1CCCN(c2ccnc3c(O)c([N+](=O)[O-])cc(Cl)c23)C1 (stereo not drawn) [Example 66] | Staphylococcus aureus (methicillin-resistant and sensitive clinical isolates; ATCC29213) | log10(MIC) | 0.00 |
| O=[N+]([O-])c1cc(F)c2c(N3CCC(F)(F)CC3)ccnc2c1O [Example 69] | Staphylococcus aureus (methicillin-resistant and sensitive clinical isolates; ATCC29213) | log10(MIC) | 0.60 |
| CCOC(=O)N1CCN(c2ccnc3c(O)c([N+](=O)[O-])cc(Cl)c23)CC1 [Example 52] | Staphylococcus aureus (methicillin-resistant and sensitive clinical isolates; ATCC29213) | log10(MIC) | 2.11 |
| Cl.O=[N+]([O-])c1cc(Cl)c2c(-c3ccccc3)ccnc2c1O [Example 51] | Staphylococcus aureus (methicillin-resistant and sensitive clinical isolates; ATCC29213) | log10(MIC) | 0.00 |
| O=[N+]([O-])c1cc(Cl)c2c(N3CCCCC3)ccnc2c1O [Example 36] | Staphylococcus aureus (methicillin-resistant and sensitive clinical isolates; ATCC29213) | log10(MIC) | 0.90 |
| O=[N+]([O-])c1cc(Cl)c2c(OC3CCCC3)ccnc2c1O [Example 59] | Staphylococcus aureus (methicillin-resistant and sensitive clinical isolates; ATCC29213) | log10(MIC) | 1.20 |
| CCN(CC)Cc1cnc2c(O)c([N+](=O)[O-])cc(Cl)c2c1.O=C(O)C(F)(F)F.O=C(O)C(F)(F)F [Example 90] | Staphylococcus aureus (methicillin-resistant and sensitive clinical isolates; ATCC29213) | log10(MIC) | 1.51 |
| O=[N+]([O-])c1ccc2c(C(F)(F)F)ccnc2c1O [Example 62, 7-Nitro-4-trifluoromethylquinolin-8-ol] | Staphylococcus aureus (methicillin-resistant and sensitive clinical isolates; ATCC29213) | log10(MIC) | 0.30 |
| O=[N+]([O-])c1cc(Cl)c2c(OCC3CC3)ccnc2c1O [Example 53] | Staphylococcus aureus (methicillin-resistant and sensitive clinical isolates; ATCC29213) | log10(MIC) | 1.20 |
| O=[N+]([O-])c1ccc2cc(CN3CCCCC3)cnc2c1O [Example 95] | Staphylococcus aureus (methicillin-resistant and sensitive clinical isolates; ATCC29213) | log10(MIC) | 1.81 |
| O=[N+]([O-])c1ccc2cc(C3CC3)cnc2c1O [Example 112, 3-cyclopropyl-7-nitroquinolin-8-ol] | Staphylococcus aureus (methicillin-resistant and sensitive clinical isolates; ATCC29213) | log10(MIC) | 0.60 |
| COc1ccnc2c(O)c([N+](=O)[O-])cc(Cl)c12 [Example 34, 5-Chloro-4-methoxy-7-nitroquinolin-8-ol] | Staphylococcus aureus (methicillin-resistant and sensitive clinical isolates; ATCC29213) | log10(MIC) | 0.60 |
| O=[N+]([O-])c1ccc2c(-c3ccccc3)ccnc2c1O [Example 22, 4-Phenyl-7-nitroquinolin-8-ol] | Staphylococcus aureus (methicillin-resistant and sensitive clinical isolates; ATCC29213) | log10(MIC) | 0.30 |
| O=[N+]([O-])c1ccc(O)c2ncccc12 [Nitroxoline, nitroxoline, reference compound] | Staphylococcus aureus (methicillin-resistant and sensitive clinical isolates; ATCC29213) | log10(MIC) | 0.60 |
| O=[N+]([O-])c1cc(Cl)c2c(N3CCC(F)(F)CC3)ccnc2c1O [Example 55] | Staphylococcus aureus (methicillin-resistant and sensitive clinical isolates; ATCC29213) | log10(MIC) | 0.60 |
| COc1ccnc2c(O)c([N+](=O)[O-])ccc12 [Example 21, 4-Methoxy-7-nitroquinolin-8-ol] | Staphylococcus aureus (methicillin-resistant and sensitive clinical isolates; ATCC29213) | log10(MIC) | 0.90 |
| O=[N+]([O-])c1cc(Cl)c2c(N3CCCC(F)(F)C3)ccnc2c1O [Example 118] | Staphylococcus aureus (methicillin-resistant and sensitive clinical isolates; ATCC29213) | log10(MIC) | 2.11 |
| CN(C)CCOc1ccnc2c(O)c([N+](=O)[O-])ccc12 [Example 24] | Staphylococcus aureus (methicillin-resistant and sensitive clinical isolates; ATCC29213) | log10(MIC) | 2.11 |
| O=[N+]([O-])c1c(Cl)c(Cl)c2cccnc2c1O [Example 115, 5,6-dichloro-7-nitroquinolin-8-ol] | Staphylococcus aureus (methicillin-resistant and sensitive clinical isolates; ATCC29213) | log10(MIC) | 0.30 |
| CCOC(=O)C1CCN(c2ccnc3c(O)c([N+](=O)[O-])cc(Cl)c23)CC1 [Example 46] | Staphylococcus aureus (methicillin-resistant and sensitive clinical isolates; ATCC29213) | log10(MIC) | 1.51 |
| O=C1CCN(c2ccnc3c(O)c([N+](=O)[O-])cc(Cl)c23)CC1 [Example 56] | Staphylococcus aureus (methicillin-resistant and sensitive clinical isolates; ATCC29213) | log10(MIC) | 2.11 |
| O=[N+]([O-])c1ccc2c(CN3CCCCC3)ccnc2c1O [Example 85] | Staphylococcus aureus (methicillin-resistant and sensitive clinical isolates; ATCC29213) | log10(MIC) | 1.81 |
| O=[N+]([O-])c1ccc2c(-n3ccnc3)ccnc2c1O [Example 15] | Staphylococcus aureus (methicillin-resistant and sensitive clinical isolates; ATCC29213) | log10(MIC) | 2.11 |
| O=[N+]([O-])c1c(Br)c(Cl)c2cccnc2c1O [Example 114, 6-bromo-5-chloro-7-nitroquinolin-8-ol] | Staphylococcus aureus (methicillin-resistant and sensitive clinical isolates; ATCC29213) | log10(MIC) | 0.30 |
